Reference for the values: ChEMBL document CHEMBL1124928

Molecular target: Amine oxidase [flavin-containing] B (Homo sapiens, UniProt P27338)
Sequence (P27338 whole entry): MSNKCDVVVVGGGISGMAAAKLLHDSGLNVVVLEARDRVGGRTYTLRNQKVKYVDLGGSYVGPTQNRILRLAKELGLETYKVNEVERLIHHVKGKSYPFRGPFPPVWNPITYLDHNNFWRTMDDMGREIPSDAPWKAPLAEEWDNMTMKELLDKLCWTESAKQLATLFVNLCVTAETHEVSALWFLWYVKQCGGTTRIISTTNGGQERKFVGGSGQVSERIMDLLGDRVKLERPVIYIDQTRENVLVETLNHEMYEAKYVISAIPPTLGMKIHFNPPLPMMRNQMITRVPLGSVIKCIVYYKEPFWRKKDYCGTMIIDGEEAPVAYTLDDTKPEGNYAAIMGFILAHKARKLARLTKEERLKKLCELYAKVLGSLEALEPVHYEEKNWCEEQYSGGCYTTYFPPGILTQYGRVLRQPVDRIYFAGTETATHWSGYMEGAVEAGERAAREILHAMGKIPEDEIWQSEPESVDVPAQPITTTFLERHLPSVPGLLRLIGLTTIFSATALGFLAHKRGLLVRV
Assay: Compounds were tested for inhibition against human liver Monoamine oxidase B (competitive inhibition was observed)
Exercise: state measured pKi for each of the compounds provided.
By convention, pKi is the negative base-10 log of a molar concentration.

Item "C[N+]1=Cc2ccccc2CC1" with Amine oxidase [flavin-containing] B (Homo sapiens, UniProt P27338) - pKi?
4.12

Item COc1cc2c(cc1O)CCN(C)[C@H]2C (racemic) with Amine oxidase [flavin-containing] B (Homo sapiens, UniProt P27338) - pKi?
2.64

Item "COc1ccc2c(c1)CC[N+](C)=C2" with Amine oxidase [flavin-containing] B (Homo sapiens, UniProt P27338) - pKi?
4.82

Item "CN1CCc2ccccc2C1" with Amine oxidase [flavin-containing] B (Homo sapiens, UniProt P27338) - pKi?
6.00

Item COc1c2c(c(OC)c(OC)c1OC)CN(C)CC2 [WEBERINE] with Amine oxidase [flavin-containing] B (Homo sapiens, UniProt P27338) - pKi?
2.72

Item "COc1cc2c(cc1OC)CN(C)CC2" with Amine oxidase [flavin-containing] B (Homo sapiens, UniProt P27338) - pKi?
4.54

###

biological target: Amine oxidase [flavin-containing] A (Homo sapiens, UniProt P21397); test: Compound was tested for inhibition against human placental Monoamine oxidase A (competitive inhibition was observed)
Readout kind: Ki (µM)
Write the answer as a number in µM, unit excluded.

Reported Ki, molecule "COc1cc2c(cc1OC)CN(C)CC2" : ____
27

###

biological target: Amine oxidase [flavin-containing] A (Homo sapiens)
pKi: −log10 of the molar value. Counter-ions that a name gives are not always drawn.
Where pKi equals or exceeds 4, the correct label is Met; where it does not, the label is Not met.

Given the entry COc1cc2c(c(OC)c1OC)C(C)NCC2 (racemic) , answer whether its pKi meets or surpasses 4.
Not met

Given the entry "COc1c2c(c(OC)c(OC)c1OC)CN(C)CC2" , answer whether its pKi meets or surpasses 4.
Not met

Given the entry "COc1cc2c(cc1O)C(C)=NCC2" , answer whether its pKi meets or surpasses 4.
Met

Given the entry "COc1cc2c(cc1OC)CC[N+](C)=C2" , answer whether its pKi meets or surpasses 4.
Met

Given the entry "COc1cc2c(cc1OC)[C@@H](C)N(C)CC2" , answer whether its pKi meets or surpasses 4.
Met

Given the entry "COc1ccc2c(c1)CC[N+](C)=C2" , answer whether its pKi meets or surpasses 4.
Met

Given the entry "COc1c(OC)c(OC)c2c(C)nccc2c1OC" , answer whether its pKi meets or surpasses 4.
Met

Given the entry "COc1cc2c(c(OC)c1OC)C(C)=NCC2" , answer whether its pKi meets or surpasses 4.
Met

Given the entry "C[C@H]1NCCc2cc(O)c(O)cc21" , answer whether its pKi meets or surpasses 4.
Met

Given the entry COc1cc2c(cc1O)C(C)NCC2 (racemic) , answer whether its pKi meets or surpasses 4.
Met

Given the entry "COc1c2c(c(OC)c(OC)c1OC)C(C)=NCC2" , answer whether its pKi meets or surpasses 4.
Met

Given the entry COc1cc2c(cc1O)CCN[C@H]2C [SALSOLINE HYDROCHLORIDE] , answer whether its pKi meets or surpasses 4.
Not met

Given the entry COc1c2c(c(OC)c(OC)c1OC)C(C)NCC2 (racemic) , answer whether its pKi meets or surpasses 4.
Not met

Given the entry CC1c2cc(O)c(O)cc2CCN1C (racemic) , answer whether its pKi meets or surpasses 4.
Met

Given the entry "COc1cc2c(cc1OC)C(C)=NCC2" , answer whether its pKi meets or surpasses 4.
Met

Given the entry C[C@@H]1NCCc2cc(O)c(O)cc21 [SALSOLINOL HYDROBROMIDE] , answer whether its pKi meets or surpasses 4.
Not met

Given the entry COc1cc2c(c(OC)c1OC)C(C)N(C)CC2 (racemic) , answer whether its pKi meets or surpasses 4.
Not met

Given the entry "COc1cc2c(cc1OC)[C@@H](C)NCC2" , answer whether its pKi meets or surpasses 4.
Met

Given the entry "CN1CCc2cc(O)c(O)cc2C1" , answer whether its pKi meets or surpasses 4.
Not met

Given the entry "COc1cc2ccncc2c(OC)c1OC" , answer whether its pKi meets or surpasses 4.
Met

Given the entry "COc1cc2c(cc1OC)[C@H](C)NCC2" , answer whether its pKi meets or surpasses 4.
Not met

###

Exercise: state measured pKi for each of the molecules provided.
target: Amine oxidase [flavin-containing] A (Homo sapiens); assay: Compounds were tested for inhibition against human placental Monoamine oxidase A (mixed inhibition was observed)
By convention, pKi is the negative base-10 log of a molar concentration.

Reported pKi, molecule COc1cc2c(cc1O)CCN(C)[C@H]2C (racemic) : ____
4.15

Reported pKi, molecule "Cc1nccc2cc(O)c(O)cc12" : ____
3.89

Reported pKi, molecule "COc1c2c(c(OC)c(OC)c1OC)CNCC2" : ____
3.15

###

Target: UniProt:P21397
Sequence (P21397 whole entry): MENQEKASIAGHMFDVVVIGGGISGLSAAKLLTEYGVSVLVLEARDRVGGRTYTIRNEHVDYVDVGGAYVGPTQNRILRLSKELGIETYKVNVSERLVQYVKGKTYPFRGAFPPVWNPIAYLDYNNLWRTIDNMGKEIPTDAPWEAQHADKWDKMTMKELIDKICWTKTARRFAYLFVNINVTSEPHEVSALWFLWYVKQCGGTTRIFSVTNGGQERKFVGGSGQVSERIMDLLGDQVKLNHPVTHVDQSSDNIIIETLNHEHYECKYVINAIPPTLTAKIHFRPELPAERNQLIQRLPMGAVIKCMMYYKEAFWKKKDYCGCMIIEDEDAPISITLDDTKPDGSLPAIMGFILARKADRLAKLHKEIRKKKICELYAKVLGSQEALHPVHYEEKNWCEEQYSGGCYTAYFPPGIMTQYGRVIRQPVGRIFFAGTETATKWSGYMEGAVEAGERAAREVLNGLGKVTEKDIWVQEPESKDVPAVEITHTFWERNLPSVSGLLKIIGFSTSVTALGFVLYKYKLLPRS
Counter-ions that a name gives are not always drawn.
Readout kind: Ki (µM)
Write the answer as a number in µM, unit excluded.

Reported Ki, compound "COc1cc2c(cc1O)CCN=C2C" : ____
80

Reported Ki, compound COc1cc2c(cc1OC)[C@H](C)N(C)CC2 [CARNEGINE HYDROCHLORIDE] : ____
102

Reported Ki, compound "C[N+]1=Cc2ccccc2CC1" : ____
130

Reported Ki, compound "COc1cc2c(cc1O)CCN[C@@H]2C" : ____
77
